# TEST_SUMMARY: Primary qHTS for delayed death inhibitors of the malarial parasite plastid, 48 hour incubation; also: potency is read from the fitted curve at half-maximal effect
# CONDITION_LABEL: P. falciparum luciferase growth in erythrocytes; series mostly up to 28.7 µM
The campaign covered roughly 310,000 compounds. About 18,000 (5.8%) were called active. Inconclusive results (about 22%) are left out. The full list was thinned out, with actives kept by preference.
QUANTITY_KIND: Potency

{"COMPOUND": "CCc1sc(C(=O)N2CCN(CC(=O)Nc3cccc(F)c3)CC2)cc1C", "Potency": "inactive"}
{"COMPOUND": "CCN(CC)CCCNC(=O)c1c(O)c2cc(F)cc3c2n(c1=O)C(C)CC3 (stereo not drawn)", "Potency": "inactive"}
{"COMPOUND": "C/C(=N\\NC(=O)c1cc(-c2ccc(O)cc2)nc2ccccc12)c1cccnc1", "Potency": "inactive"}
{"COMPOUND": "CC1Cc2nc(SCC(=O)Nc3ccccc3F)n(C)c(=O)c2S1 (stereo not drawn)", "Potency": "7.38 µM (active)"}
{"COMPOUND": "COc1ccc(C(=O)Nc2ccc(C(=O)NCC3CCCO3)cc2)c(OC)c1OC (stereo not drawn)", "Potency": "inactive"}

Supply measured Potency of Cc1ccnc(N2C(=O)c3ccc([N+](=O)[O-])cc3C2=O)c1 in your reply. inactive

Supply measured Potency of Cc1nc(-c2ccc(F)cc2)c(CC(=O)N2CCN(S(=O)(=O)c3ccc(F)cc3)CC2)s1 in your reply. inactive

Supply measured Potency of Cn1c(CCC(=O)Nc2ccccc2F)nnc1SCC(=O)Nc1ccccc1Cl in your reply. inactive

Supply measured Potency of O=C(CSc1nn(-c2ccc(F)cc2)c(=S)s1)NC1CCS(=O)(=O)C1 (stereo not drawn) in your reply. inactive

Supply measured Potency of COc1ccc(C)cc1NC(=O)CSc1ccc(Cl)cc1 in your reply. inactive

Supply measured Potency of Cc1ccccc1-n1nc(SCC(=O)O)sc1=S in your reply. inactive

====

# TEST_SUMMARY: Primary qHTS for delayed death inhibitors of the malarial parasite plastid, 48 hour incubation
# CONDITION_LABEL: P. falciparum luciferase growth in erythrocytes; series mostly up to 28.7 µM
Out of some 310,000 compounds screened, about 18,000 (5.8%) were called active. Another 22% or so got no clear call; they are omitted. The call rests on the fitted dose curve; in most records, active means well fitted inhibition curve with a large enough effect; inconclusive means small, poorly fitted or top-dose-only effect, or another doubt; inactive means no such curve, though single readings can be large or run the other way. The sample as a whole holds a higher share of actives than the screen did.
Hello, when you answer, please use one of the following outcomes: T (active), F (inactive)

{"SMILES_STR": "CN(C)CCCN=Cc1c(O)n(Cc2ccco2)c(=O)[nH]c1=O", "CLASSIFICATION": "F"}
{"SMILES_STR": "COc1ccc(C(=O)n2nc(C)c(Br)c2C)cc1OC", "CLASSIFICATION": "F"}
{"SMILES_STR": "Cc1cc(OCCCN2CCN(Cc3ccccc3)CC2)ccc1[N+](=O)[O-]", "CLASSIFICATION": "F"}
{"SMILES_STR": "CCOc1ccc(NC(=O)CCC(=O)N/N=C/c2ccc([N+](=O)[O-])s2)cc1", "CLASSIFICATION": "T"}
{"SMILES_STR": "CC(C)n1c(=O)c(C=Nc2ccc(Br)cc2)c(O)n(Cc2ccco2)c1=O", "CLASSIFICATION": "T"}
{"SMILES_STR": "Cn1cccc1/C=N/NC(=O)CNc1cccc2ccccc12", "CLASSIFICATION": "F"}
{"SMILES_STR": "Cn1c(O)c(C=Nc2ccc3c(c2)CCC3)c(=O)n(C)c1=O", "CLASSIFICATION": "F"}
{"SMILES_STR": "CCOc1ccc(NC(=O)CCC(=O)NNC(=O)NC2CCCCC2)cc1", "CLASSIFICATION": "F"}

I would be grateful if you could indicate the recorded call for COc1ccc(NC(=O)NNC(=O)COc2cc(C)c(Cl)c(C)c2)c(OC)c1 . F

I would be grateful if you could indicate the recorded call for CCOc1ccc(NC(=O)CCC(=O)n2nc(C)cc2C)cc1 . F

I would be grateful if you could indicate the recorded call for O=C(N/N=C/c1c[nH]c2ccccc12)c1ccccc1O . F

====

# TEST_SUMMARY: Primary qHTS for delayed death inhibitors of the malarial parasite plastid, 48 hour incubation
# CONDITION_LABEL: P. falciparum luciferase growth in erythrocytes; series mostly up to 28.7 µM
# Source text: The goal of this screen is to discover new antimalarial compounds that act by inhibiting the development of the apicoplast in the malarial parasite Plasmodium falciparum. […] We have developed a cell-based assay that measures parasite growth based on the expression of an integrated copy of a firefly luciferase reporter. […] Growth inhibition is detected by a decrease in luciferase activity. […]
The whole screen tested about 310,000 compounds, of which about 18,000 (5.8%) were called active. Inconclusive results (about 22%) are left out. Calls come from the whole dose curve; as a rule, active = well fitted inhibition curve with a large enough effect; inconclusive = small, poorly fitted or top-dose-only effect, or another doubt; inactive = no such curve, though single readings can be large or run the other way. The list comes from a sample in which actives are over-represented; it also holds close analogues and randomly drawn compounds.
Hello, when you answer, please use one of the following outcomes: active, inactive

{"MOLECULE": "CN(C)c1cccc(C(=O)N2CCC(n3nccc3NC(=O)C3CCOC3)CC2)c1 (stereo not drawn)", "CLASSIFICATION": "inactive"}
{"MOLECULE": "Cc1ccc(C(=O)CNc2ccc(F)cc2)cc1", "CLASSIFICATION": "inactive"}
{"MOLECULE": "CCCn1c(N)c(C(=O)CSc2nc3ccccc3c(=O)n2-c2ccc(OC)cc2)c(=O)[nH]c1=O", "CLASSIFICATION": "inactive"}

I would be grateful if you could indicate the recorded call for COc1ccccc1/C=N/N1CCN(Cc2ccccc2Cl)CC1 . inactive

I would be grateful if you could indicate the recorded call for CC(=O)Nc1ccc(Nc2ncnc3c2nnn3Cc2ccccc2Cl)cc1 . inactive

I would be grateful if you could indicate the recorded call for COC(=O)C1=C(Nc2ccc(OC)cc2)C=C(C)C(C(=O)OC)C1c1ccc(C)cc1 (stereo not drawn) . active

I would be grateful if you could indicate the recorded call for CC(OC(=O)c1cc2ccccc2o1)C(=O)Nc1ccc(N2CCOCC2)cc1 (stereo not drawn) . inactive

I would be grateful if you could indicate the recorded call for Nc1nc(-c2ccccc2)cc(-c2ccccc2)n1 . inactive

====

# TEST_SUMMARY: Primary qHTS for delayed death inhibitors of the malarial parasite plastid, 48 hour incubation
# CONDITION_LABEL: P. falciparum luciferase growth in erythrocytes; series mostly up to 28.7 µM
# Text: The goal of this screen is to discover new antimalarial compounds that act by inhibiting the development of the apicoplast in the malarial parasite Plasmodium falciparum. […] We have developed a cell-based assay that measures parasite growth based on the expression of an integrated copy of a firefly luciferase reporter. […] Growth inhibition is detected by a decrease in luciferase activity. […]
Among all 310,000 compounds or so, about 18,000 (5.8%) were called active. Not shown: some 22% with an inconclusive outcome. Calls follow the shape of the dose curve; as a rule, active = well fitted inhibition curve with a large enough effect; inconclusive = small, poorly fitted or top-dose-only effect, or another doubt; inactive = no such curve, though single readings can be large or run the other way. The entries come from a sample that favours actives as a whole.
Hello, when you answer, please use one of the following outcomes: YES = active, NO = inactive

Take a look at these entries with their results.
{"COMPOUND": "O=C(CSc1nnnn1C1CCCC1)N1CCCCC1", "CLASSIFICATION": "NO"}
{"COMPOUND": "O=C1Nc2ccccc2/C1=C/c1ccnc2ccccc12", "CLASSIFICATION": "NO"}
{"COMPOUND": "CS(=O)(=O)Nc1ccccc1N=C(c1ccccc1)c1ccccc1", "CLASSIFICATION": "NO"}
{"COMPOUND": "COc1ccc(Cc2nc(-c3ccccn3)no2)cc1OC", "CLASSIFICATION": "NO"}
{"COMPOUND": "CCOC(=O)N1CCN(C(=O)c2cn(C)c3ccc(S(=O)(=O)N(CC)CC)cc3c2=O)CC1", "CLASSIFICATION": "NO"}

I would be grateful if you could indicate the recorded call for Cc1ccc(Oc2nc3ccccc3n3c(C)nnc23)cc1 . NO

I would be grateful if you could indicate the recorded call for CCOC(=O)c1sc(NC(=O)CSc2nnc(-c3ccco3)o2)c(C(=O)OCC)c1C . NO

I would be grateful if you could indicate the recorded call for Cc1ccc2c(c1)N(CC(=O)N1CCC(O)CC1)C(=O)CO2 . NO

====

# TEST_SUMMARY: Primary qHTS for delayed death inhibitors of the malarial parasite plastid, 48 hour incubation
# CONDITION_LABEL: P. falciparum luciferase growth in erythrocytes; series mostly up to 28.7 µM
Screen size: about 310,000 compounds; about 18,000 (5.8%) were called active. Inconclusive results (about 22%) are left out. The call rests on the fitted dose curve; in most records, active means well fitted inhibition curve with a large enough effect; inconclusive means small, poorly fitted or top-dose-only effect, or another doubt; inactive means no such curve, though single readings can be large or run the other way. This is one part of a sample in which actives are shown more often than they occur.
Hello, when you answer, please use one of the following outcomes: true (1) for active, false (0) for inactive

Take a look at these entries with their results.
{"COMPOUND": "COc1ccc(Cl)cc1C(=O)OCC(=O)NCc1cccs1", "CLASSIFICATION": "false (0)"}
{"COMPOUND": "Cc1nn(-c2ccccc2)c(C)c1C(=O)OCC(=O)NC(=O)NC1CCCCC1", "CLASSIFICATION": "false (0)"}
{"COMPOUND": "O=C(COc1ccc(Cl)cc1)NCCS(=O)(=O)N1CCN(c2ccc(F)cc2)CC1", "CLASSIFICATION": "false (0)"}
{"COMPOUND": "CCC(C)(C)n1nnnc1C(c1ccc(OC)c(OC)c1)N1CCN(C(=O)c2ccco2)CC1 (configuration not stated)", "CLASSIFICATION": "false (0)"}
{"COMPOUND": "CCN(CC(=O)Nc1ccccc1C(F)(F)F)C(=O)C1CCN(C(=O)Nc2ccccc2)CC1", "CLASSIFICATION": "true (1)"}
{"COMPOUND": "CCOC(=O)CSc1nc2c(c(=O)n(Cc3ccccc3Cl)c(=O)n2C)n1C", "CLASSIFICATION": "false (0)"}
{"COMPOUND": "O=C(NNC(=O)C(O)c1ccccc1)NC1CCCCC1 (configuration not stated)", "CLASSIFICATION": "false (0)"}
{"COMPOUND": "COc1ccccc1CN(C)c1nnnn1-c1ccccc1", "CLASSIFICATION": "false (0)"}

I would be grateful if you could indicate the recorded call for Cc1[nH]c(C)c(S(=O)(=O)N2CCN(c3cccc(C(F)(F)F)c3)CC2)c1C(=O)N1CCCC1 . false (0)

I would be grateful if you could indicate the recorded call for CCC(C)(C)n1nnnc1C(c1ccccc1OC)N1CCSCC1 (configuration not stated) . true (1)

I would be grateful if you could indicate the recorded call for OC(c1nc2ccc(F)cc2[nH]1)C(O)c1nc2ccc(F)cc2[nH]1 (configuration not stated) . false (0)

I would be grateful if you could indicate the recorded call for Cc1nc(/N=C(\N)NC(=O)NC2CCCCC2)nc2ccccc12 . true (1)

I would be grateful if you could indicate the recorded call for Cc1nn(CCCC(=O)NCc2ccccc2Cl)c(=O)c2nccn12 . false (0)

I would be grateful if you could indicate the recorded call for CCN(CC(=O)Nc1c(F)cccc1F)C(=O)C1CCC1 . false (0)

I would be grateful if you could indicate the recorded call for COc1ccc2nc(C)cc(Nc3cccc(C(=O)O)c3)c2c1 . false (0)

I would be grateful if you could indicate the recorded call for COc1ccc2c(C)c(CCC(=O)NC3CC3)c(=O)oc2c1C . false (0)

I would be grateful if you could indicate the recorded call for CC1=C(C(=O)OC(C)(C)C)C(c2ccc(Br)cc2)NC(=O)N1CCCC(=O)O (configuration not stated) . false (0)

I would be grateful if you could indicate the recorded call for CCC(C)(C)n1nnnc1CN1CCN(c2nc3ccc(C)cc3cc2C#N)CC1 . false (0)

I would be grateful if you could indicate the recorded call for CC(C)C(c1nnnn1C(C)(C)C)N1CCN(Cc2cccnc2)CC1 (configuration not stated) . false (0)

I would be grateful if you could indicate the recorded call for CCC(=O)Nc1ccc2nc(C)n(Cc3ccccc3Cl)c(=O)c2c1 . true (1)

I would be grateful if you could indicate the recorded call for CCC(C)(C)n1nnnc1C(c1cccs1)N1CCN(c2nc3ccccc3s2)CC1 (configuration not stated) . true (1)

I would be grateful if you could indicate the recorded call for COc1ccccc1C(=O)NC(=O)COC(=O)c1ccco1 . false (0)
